Experiment: chemical genetic growth profiling, strain panel (AID 1159580);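 note: tested at 20 µM; growth read once vehicle control cultures reached saturation at 30 °C; 1 = growth at the plate median or of vehicle wells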
Conditions: S. cerevisiae deletion strains, growth OD, locus YNL298W, strain CLA4, stronger effect = lower value
About 2,000 (36%) of roughly 5,500 compounds were called active. Not shown: some 18% with an inconclusive outcome. Some of the results follow. Where a SMILES comes first, the peptide text is derived from it.
Task for the reader: assign each of the following molecules its reported normalized growth.
No unit in the answer, only the number.

Prompt: // normalized growth lookup, key: CCN1C[C@@]2(COC)C3[C@@H](OC)[C@H]4[C@@H]1[C@]3(C(OC)C[C@H]2O)C1C[C@@]2(O)[C@H](OC(=O)c3ccccc3)C1[C@]4(OC(C)=O)[C@@H](O)[C@@H]2OC (some centres not stated)
Response: 1.05

Prompt: If you can, please state the reported normalized growth value of CC(=O)O[C@H]1C[C@@H](OC(C)=O)C(C)(C)C2C[C@@H](O)[C@]3(C)C(CC[C@@]4(C)[C@H](c5ccoc5)OC(=O)[C@H]5O[C@]543)[C@]21C (some centres not stated) .
Response: 0.993

Prompt: Need normalized growth, item CC1(C)C(=O)[C@@H]2O[C@@H]2[C@@]2(C)C1C[C@@H](O)[C@]1(C)C2CC[C@@]2(C)[C@H](c3ccoc3)OC(=O)C3OC321 (some centres not stated)
Response: 0.971

Prompt: Bench note: what normalized growth did CC(=O)N[C@@H](CC(=O)O)C(=O)N[C@@H](CCC(=O)O)C(=O)O (Ac-Asp-Glu-OH) show?
Response: 0.987

Prompt: Can you share its normalized growth? I mean this molecule: CC(=O)N[C@@H](CCC(=O)O)C(=O)O
Response: 1.01

Prompt: Requested field: normalized growth. Item: CC(=O)O[C@@H]1CC2C(C)(C)C(=O)C3OC3[C@]2(C)C2CC[C@@]3(C)[C@H](c4ccoc4)OC(=O)C4OC43[C@@]21C (some centres not stated)
Response: 1

Prompt: Name the recorded normalized growth for CC(=O)O[C@H]1C[C@@H](OC(C)=O)C(C)(C)C2C[C@@H](OC(C)=O)[C@]3(C)C(CC[C@@]4(C)[C@H](c5ccoc5)OC(=O)[C@H]5O[C@]543)[C@]21C (some centres not stated) .
Response: 1.01
